tgt: UniProt P55055
assay-explanation: Assay for Transcriptional Activity of LXRβ (GAL4-hLXRβ LBD luciferase reporter, transient transfection)
condition-details: increase of transcriptional activity of LXRβ; HEK293 cells transfected with pFA-hLXRβ/GAL4 and pUAS; 24 hours; average of three independent tests
quantity-kind: EC50 (nM)
# output: bare number, implied unit nM

Report EC50 for CC(C)(C)OC(=O)N1CC=C(c2cccc(C3CC(C(F)(F)C(F)(F)F)=NN3c3ccc(F)cc3F)c2)CC1 (stereo not shown) please.
20100

Report EC50 for CC(=O)c1ccccc1-c1ccc(C2CC(C(O)(C(F)(F)F)C(F)(F)F)=NN2c2ccccc2Cl)cc1 (stereo not shown) please.
3350

Report EC50 for N#Cc1cncc(-c2ccc(C3CC(C(O)(C(F)(F)F)C(F)(F)F)=NN3c3ccccc3Cl)cc2)c1 (stereo not shown) please.
731

Report EC50 for COc1ncc(-c2ccc(C3CC(C(O)(C(F)(F)F)C(F)(F)F)=NN3c3ccc(F)cc3F)cc2)cc1C=O (stereo not shown) please.
745

Report EC50 for OC(C1=NN(c2ccccc2Cl)C(c2ccc(-c3ccc(F)cc3)cc2)C1)(C(F)(F)F)C(F)(F)F (stereo not shown) please.
1410

Report EC50 for COc1ncc(-c2ccc(C3CC(C(O)(C(F)(F)F)C(F)(F)F)=NN3c3ccccc3Cl)cc2)cc1C=O (stereo not shown) please.
1010

Report EC50 for CN(C)S(=O)(=O)c1cccc(-c2cccc(C3CC(C(F)(F)C(F)(F)F)=NN3c3ccc(F)cc3F)c2)c1 (stereo not shown) please.
91

----------
tgt: human LXRβ (Homo sapiens, UniProt P55055)
Construct: expressed in transfected cells; host or cells: HEK293 cells (ATCC CRL-1573), transient transfection with pFA-hLXRβ/GAL4 and pUAS
assay-explanation: Assay for Transcriptional Activity of LXRβ (GAL4-hLXRβ LBD luciferase reporter, transient transfection)
Type: cell-based
condition-details: fold value in comparison with the control (DMSO-treated group); HEK293 cells transfected with pFA-hLXRβ/GAL4 and pUAS; 24 hours
quantity-kind: Emax
Express your answer as a number followed by its unit.

Report Emax for CN(CCCS(=O)(=O)c1ccc(-c2cccc(C3CC(C(F)(F)C(F)(F)F)=NN3c3ccc(F)cc3F)c2)cc1)C(=O)OC(C)(C)C (centres unmarked) [Example 86] please.
45 fold

Report Emax for Cn1c(-c2ccc(C3CC(C(O)(C(F)(F)F)C(F)(F)F)=NN3c3ccc(F)cc3F)cc2)cc2ccccc21 (centres unmarked) [Example 374] please.
60 fold

Report Emax for CS(=O)(=O)c1cc(F)c(-c2ccc(C3CC(C(O)(C(F)(F)F)C(F)(F)F)=NN3c3ccc(F)cc3F)cc2)c(F)c1 (centres unmarked) [Example 389] please.
29 fold

Report Emax for CS(=O)(=O)c1cc(-c2cccc(C3CC(C(F)(F)C(F)(F)F)=NN3c3ccc(F)cc3F)c2)cc(F)c1CO (centres unmarked) [Example 76] please.
84 fold

Report Emax for CC(C)(C)OC(=O)N1CC=C(c2ccc(C3CC(C(O)(C(F)(F)F)C(F)(F)F)=NN3c3ccc(F)cc3F)cc2)CC1 (centres unmarked) [Example 398] please.
12 fold

Report Emax for CSc1cccc(-c2ccc(C3CC(C(F)(F)C(F)(F)F)=NN3Cc3ccccc3Cl)cc2)c1 (centres unmarked) [Example 15] please.
23 fold

Report Emax for O=S(=O)(C1CC1)N1CCN(c2ccc(F)c(C3CC(C(F)(F)C(F)(F)F)=NN3c3ccc(F)cc3F)c2)CC1 (centres unmarked) [Example 146] please.
105 fold

Report Emax for CS(=O)(=O)c1ccc(-c2cccc(C3CC(C(F)(F)C(F)(F)F)=NN3c3ccc(F)cc3F)c2)cc1C#N (centres unmarked) [Example 70] please.
62 fold

Report Emax for CS(=O)(=O)c1ccc(-c2cccc(C3CC(C(F)(F)C(F)(F)F)=NN3c3ccc(Cl)cc3Cl)c2)cc1 (centres unmarked) [Example 41] please.
89 fold

Report Emax for COc1ncc(-c2ccc(C3CC(C(O)(C(F)(F)F)C(F)(F)F)=NN3c3ccccc3Cl)cc2)c(OC)n1 (centres unmarked) [Example 280] please.
81 fold

Report Emax for CS(=O)(=O)c1cccc(-c2cc(C3CC(C(F)(F)C(F)(F)F)=NN3c3ccc(F)cc3F)ccn2)c1 (centres unmarked) [Example 188] please.
107 fold

Report Emax for CC(=O)c1ccccc1-c1ccc(C2CC(C(O)(C(F)(F)F)C(F)(F)F)=NN2c2ccccc2Cl)cn1 (centres unmarked) [Example 348] please.
45 fold

Report Emax for CC(C)(C)OC(=O)N1CC=C(c2ccc(C3CC(C(O)(C(F)(F)F)C(F)(F)F)=NN3c3ccccc3Cl)s2)CC1 (centres unmarked) [Example 416] please.
90 fold

Report Emax for Cc1ncccc1-c1ccc(C2CC(C(O)(C(F)(F)F)C(F)(F)F)=NN2c2ccc(F)cc2F)cc1 (centres unmarked) [Example 376] please.
39 fold

----------
tgt: human LXRβ (Homo sapiens, UniProt P55055)
Sequence (P55055 222-460 limits assumed): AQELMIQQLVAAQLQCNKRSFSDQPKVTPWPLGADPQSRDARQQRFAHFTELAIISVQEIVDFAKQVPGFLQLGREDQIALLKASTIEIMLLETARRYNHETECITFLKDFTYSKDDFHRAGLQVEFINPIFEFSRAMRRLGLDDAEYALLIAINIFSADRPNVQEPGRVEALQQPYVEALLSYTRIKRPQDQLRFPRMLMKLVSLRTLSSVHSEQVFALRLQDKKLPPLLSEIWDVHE
assay-explanation: Assay for Transcriptional Activity of LXRβ (GAL4-hLXRβ LBD luciferase reporter, transient transfection)
condition-details: increase of transcriptional activity of LXRβ; HEK293 cells transfected with pFA-hLXRβ/GAL4 and pUAS; 24 hours; average of three independent tests
Exercise: for every item that follows, state its recorded pEC50.
In textbook form, pEC50 equals minus log to base ten of the concentration in mol/L.

Report pEC50 for OC(C1=NN(c2ccc(F)cc2F)C(c2ccc(-c3ccc(-n4cnnn4)cc3)cc2)C1)(C(F)(F)F)C(F)(F)F (centres unmarked) please.
6.26

Report pEC50 for CCS(=O)(=O)N1CCCN(c2ccc(C3CC(C(O)(C(F)(F)F)C(F)(F)F)=NN3c3ccccc3Cl)cc2)CC1 (centres unmarked) please.
6.46

Report pEC50 for COc1cc(C)c(-c2ccc(C3CC(C(O)(C(F)(F)F)C(F)(F)F)=NN3c3ccccc3Cl)cc2)cn1 (centres unmarked) please.
6.36

Report pEC50 for CC(=O)c1ccc(-c2ccc(C3CC(C(O)(C(F)(F)F)C(F)(F)F)=NN3c3ccccc3Cl)cc2F)cc1 (centres unmarked) please.
6.24

Report pEC50 for CS(=O)(=O)N1CCN(c2ccc(C3CC(C(O)(C(F)(F)F)C(F)(F)F)=NN3c3ccccc3Cl)cn2)CC1 (centres unmarked) please.
4.99

Report pEC50 for CS(=O)(=O)c1cccc(-c2cccc(N3N=C(C(F)(F)C(F)(F)F)CC3c3ccc(F)cc3F)c2)n1 (centres unmarked) please.
5.22

Report pEC50 for CS(=O)(=O)c1ccc(-c2ccc(C3CC(C(O)(C(F)(F)F)C(F)(F)F)=NN3c3ccc(F)cc3F)cc2)nc1 (centres unmarked) please.
6.76

Report pEC50 for CN(CCCS(=O)(=O)c1cccc(-c2ccc(C3CC(C(O)(C(F)(F)F)C(F)(F)F)=NN3c3ccccc3Cl)cc2)c1)C(=O)OC(C)(C)C (centres unmarked) please.
7.21

Report pEC50 for OC(C1=NN(c2ccccc2Cl)C(c2ccc(-c3ccc(F)nc3)cc2)C1)(C(F)(F)F)C(F)(F)F (centres unmarked) please.
6.34

Report pEC50 for COc1ncccc1-c1cccc(C2CC(C(F)(F)C(F)(F)F)=NN2c2ccc(F)cc2F)c1 (centres unmarked) please.
5.95

Report pEC50 for CCOc1cccc(-c2ccc(C3CC(C(O)(C(F)(F)F)C(F)(F)F)=NN3c3ccccc3Cl)cc2)c1 (centres unmarked) please.
5.71

Report pEC50 for CCOC(=O)c1cncc(-c2ccc(C3CC(C(O)(C(F)(F)F)C(F)(F)F)=NN3c3ccc(F)cc3F)cc2)c1 (centres unmarked) please.
6.13

Report pEC50 for OC(C1=NN(c2ccccc2Cl)C(c2ccc(-c3cc4ccccc4o3)cc2)C1)(C(F)(F)F)C(F)(F)F (centres unmarked) please.
5.16

Report pEC50 for CS(=O)(=O)c1ccc(-c2cccc(C3CC(C(F)(F)C(F)(F)F)=NN3c3ccc(F)cc3F)c2)nc1 (centres unmarked) please.
5.85

----------
tgt: human LXRβ (Homo sapiens)
assay-explanation: Assay for Transcriptional Activity of LXRβ (GAL4-hLXRβ LBD luciferase reporter, transient transfection)
condition-details: increase of transcriptional activity of LXRβ; HEK293 cells transfected with pFA-hLXRβ/GAL4 and pUAS; 24 hours; average of three independent tests
quantity-kind: EC50
Express your answer as a number followed by its unit.

Report EC50 for CNCCCS(=O)(=O)c1cccc(-c2cccc(N3N=C(C(F)(F)C(F)(F)F)CC3c3ccc(F)cc3F)c2)c1.Cl (centres unmarked) [Example 212, hydrochloride] please.
1620 nM

Report EC50 for CS(=O)(=O)c1cc(-c2cccc(C3CC(C(F)(F)C(F)(F)F)=NN3c3ccc(F)cc3F)c2)cc(F)c1CO (centres unmarked) [Example 76] please.
189 nM

Report EC50 for CC(C)Oc1ccccc1-c1ccc(C2CC(C(O)(C(F)(F)F)C(F)(F)F)=NN2c2ccccc2Cl)cc1F (centres unmarked) [Example 367] please.
312 nM

Report EC50 for Cc1cc(-n2cnnn2)ncc1-c1ccc(C2CC(C(O)(C(F)(F)F)C(F)(F)F)=NN2c2ccc(F)cc2F)cc1 (centres unmarked) [Example 394] please.
83 nM

Report EC50 for CS(=O)(=O)N1CCN(c2ccc(C3CC(C(O)(C(F)(F)F)C(F)(F)F)=NN3c3ccccc3Cl)cc2)CC1 (centres unmarked) [Example 312] please.
2540 nM

Report EC50 for CS(=O)(=O)c1ccc(-c2ccc(F)c(C3CC(C(F)(F)C(F)(F)F)=NN3c3ccc(F)cc3F)c2)cn1 (centres unmarked) [Example 142] please.
181 nM

Report EC50 for CS(=O)(=O)c1ccc(-c2cccc(N3N=C(C(O)(C(F)(F)F)C(F)(F)F)CC3c3ccccc3Cl)c2)cn1 (centres unmarked) [Example 435] please.
965 nM

Report EC50 for OC(C1=NN(c2ccccc2Cl)C(c2ccc(-c3cnc4ccccc4c3)cc2)C1)(C(F)(F)F)C(F)(F)F (centres unmarked) [Example 259] please.
519 nM

Report EC50 for CS(=O)(=O)c1cccc(-c2ccc(C3CC(C(O)(C(F)(F)F)C(F)(F)F)=NN3c3ccccc3Cl)cc2)n1 (centres unmarked) [Example 286] please.
632 nM

Report EC50 for Fc1ccc(N2N=C(C(F)(F)C(F)(F)F)CC2c2cccc(-c3ccc(C(F)(F)F)nc3)c2)c(F)c1 (centres unmarked) [Example 72] please.
15200 nM

Report EC50 for Fc1cncc(-c2cccc(C3CC(C(F)(F)C(F)(F)F)=NN3c3ccc(F)cc3F)c2)c1 (centres unmarked) [Example 74] please.
2960 nM

Report EC50 for CS(=O)(=O)c1cc(F)c(-c2ccc(C3CC(C(O)(C(F)(F)F)C(F)(F)F)=NN3c3ccccc3Cl)cc2)c(F)c1 (centres unmarked) [Example 288] please.
727 nM

Report EC50 for CSc1cccc(-c2ccc(C3CC(C(F)(F)C(F)(F)F)=NN3Cc3ccccc3Cl)cc2)c1 (centres unmarked) [Example 15] please.
14800 nM

Report EC50 for CS(=O)(=O)c1c(F)cc(-c2ccc(C3CC(C(O)(C(F)(F)F)C(F)(F)F)=NN3c3ccc(F)cc3F)cc2)cc1F (centres unmarked) [Example 388] please.
60 nM
